Test system: ChaGo-K-1
experiment-notes: relative viability (nuclei count vs DMSO), 5 days (fraction); higher = more cells survive
setup-conditions: first compound 0.1265 µM
Consider the following molecules and their measured relative viability readings.
Format: numeric value only, no unit, no commentary.

Look over these answered cases.
* COc1cc(N2CCC(C(N)=O)CC2)ccc1Nc1nc(N)c(Cl)c(Nc2ccccc2S(=O)(=O)C(C)C)n1 [HG-5-88-01] + C[C@@H](Oc1cc(-c2cnn(C3CCNCC3)c2)cnc1N)c1c(Cl)ccc(F)c1Cl [Crizotinib] (partner 1 µM) | 1.14
* COc1cc(N2CCC(C(N)=O)CC2)ccc1Nc1nc(N)c(Cl)c(Nc2ccccc2S(=O)(=O)C(C)C)n1 [HG-5-88-01] + CC(=O)c1c(C)c2cnc(Nc3ccc(N4CCNCC4)cn3)nc2n(C2CCCC2)c1=O [Palbociclib] (partner 0.5 µM) | 0.813
* COc1cc(N2CCC(C(N)=O)CC2)ccc1Nc1nc(N)c(Cl)c(Nc2ccccc2S(=O)(=O)C(C)C)n1 [HG-5-88-01] + O=C(c1cc(Cc2n[nH]c(=O)c3ccccc23)ccc1F)N1CCN(C(=O)C2CC2)CC1 [Olaparib] (partner 8 µM) | 0.418
* Clc1ccc(Nc2nnc(Cc3ccncc3)c3ccccc23)cc1 [Vatalanib] + CC(=O)Nc1cccc(-n2c(=O)n(C3CC3)c(=O)c3c(Nc4ccc(I)cc4F)n(C)c(=O)c(C)c32)c1 [Trametinib] (partner 0.02 µM) | 0.823
* COc1cc(N2CCC(C(N)=O)CC2)ccc1Nc1nc(N)c(Cl)c(Nc2ccccc2S(=O)(=O)C(C)C)n1 [HG-5-88-01] + CCNC(=O)c1noc(-c2cc(C(C)C)c(O)cc2O)c1-c1ccc(CN2CCOCC2)cc1 [Luminespib] (partner 0.01 µM) | 0.682
* C[C@@H]1CN(CC(=O)Nc2ccc3c(c2)Cc2cccc(-c4cc(=O)cc(N5CCOCC5)o4)c2S3)C[C@H](C)O1 + Cc1cc(Nc2cc(N3CCN(C)CC3)nc(Sc3ccc(NC(=O)C4CC4)cc3)n2)n[nH]1 [Tozasertib] (partner 0.1 µM) | 0.209

Incoming: Give relative viability (ChaGo-K-1) of the following molecule: C[C@@H]1CN(CC(=O)Nc2ccc3c(c2)Cc2cccc(-c4cc(=O)cc(N5CCOCC5)o4)c2S3)C[C@H](C)O1 + NC(=O)Nc1cc(-c2cccc(F)c2)sc1C(=O)N[C@H]1CCCNC1 [AZD7762] (partner 0.2 µM)
Outgoing: 0.855

Incoming: Give relative viability (ChaGo-K-1) of the following molecule: C[C@@H]1CN(CC(=O)Nc2ccc3c(c2)Cc2cccc(-c4cc(=O)cc(N5CCOCC5)o4)c2S3)C[C@H](C)O1 + Nc1nc2[nH]cc(CCc3ccc(C(=O)N[C@@H](CCC(=O)O)C(=O)O)cc3)c2c(=O)[nH]1 [Pemetrexed] (partner 0.2 µM)
Outgoing: 0.245
